- target under test: recombinant human LAT1 (Homo sapiens)
- Construct: made in house; host or cells: E. coli
- test method notes: Inhibition of LAT1 mediated [3H]-His transport in proteoliposomes reconstituted with recombinant purified human LAT1
- Assay type: biochemical
- reported conditions: 100 µM concentration, n = 3, Table S6

- compound: "Cc1nnc(-c2ccccc2-c2ccc(CNS(C)(=O)=O)cc2)o1"
  % Residual Activity (%): 95.87
- compound: "NC(Cc1cccc(OCc2ccccc2)c1)C(=O)O (centres unmarked)"
  % Residual Activity (%): 11.78
- compound: "N[C@@H](Cc1cn(Cc2ccccc2)cn1)C(=O)O"
  % Residual Activity (%): 11.34
- compound: "Cc1sc2ccccc2c1CN1CCCn2nc(C(O)CO)cc2C1 (centres unmarked)"
  % Residual Activity (%): 85.14
- compound: "N#Cc1c(-c2ccccc2-c2ccco2)cc(-c2cc(C(=O)O)[nH]n2)nc1N"
  % Residual Activity (%): 74.23

###

- target under test: recombinant human LAT1 (Homo sapiens, UniProt Q01650)
- Construct: made in house; host or cells: E. coli
- Sequence (Q01650 whole entry): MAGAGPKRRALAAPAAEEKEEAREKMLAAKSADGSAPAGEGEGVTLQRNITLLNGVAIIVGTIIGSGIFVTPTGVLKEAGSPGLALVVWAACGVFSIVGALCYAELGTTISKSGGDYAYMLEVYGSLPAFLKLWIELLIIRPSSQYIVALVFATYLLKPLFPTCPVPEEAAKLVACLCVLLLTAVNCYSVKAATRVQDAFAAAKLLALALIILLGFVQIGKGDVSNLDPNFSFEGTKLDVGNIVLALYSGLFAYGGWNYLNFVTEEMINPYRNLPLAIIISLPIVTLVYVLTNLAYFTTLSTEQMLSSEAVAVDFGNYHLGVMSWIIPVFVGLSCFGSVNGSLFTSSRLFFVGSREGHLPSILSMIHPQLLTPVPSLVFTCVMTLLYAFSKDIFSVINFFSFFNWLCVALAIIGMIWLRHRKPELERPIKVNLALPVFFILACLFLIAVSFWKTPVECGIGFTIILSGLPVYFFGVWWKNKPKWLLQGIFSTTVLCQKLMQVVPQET
- test method notes: Inhibition of LAT1 mediated [3H]-His transport in proteoliposomes reconstituted with recombinant purified human LAT1
- Assay type: biochemical
- reported conditions: 100 μM compound, [3H]-His uptake in proteoliposomes

- molecule: "CC(C)COc1ccc(C(N)CC(=O)O)cc1 (stereo not shown) [Compound 27]"
  LAT1 inhibition, activity in words: "slightly active"
- molecule: "NC(Cc1cn(-c2ccccc2)nn1)C(=O)O (stereo not shown) [Compound 34]"
  LAT1 inhibition, activity in words: "slightly active"
- molecule: "N[C@@H](Cc1ccc2ccccc2n1)C(=O)O [Compound 37]"
  LAT1 inhibition, activity in words: "slightly active"
- molecule: "NC(Cc1cccc(OCc2ccccc2)c1)C(=O)O (stereo not shown) [Compound 35]"
  LAT1 inhibition, activity in words: "highly active"
- molecule: "COc1ccc(CSCC(N)C(=O)O)cc1Br (stereo not shown) [Compound 28]"
  LAT1 inhibition, activity in words: "highly active"
- molecule: "NC(CSCc1cccc2ccccc12)C(=O)O (stereo not shown) [Compound 33]"
  LAT1 inhibition, activity in words: "highly active"

###

- target under test: recombinant human LAT1 (Homo sapiens, UniProt Q01650)
- Construct: made in house; host or cells: E. coli
- test method notes: Inhibition of LAT1 mediated [3H]-His transport in proteoliposomes reconstituted with recombinant purified human LAT1
- Assay type: biochemical
- reported conditions: 100 µM concentration, n = 3, Table S6
measured quantity: % Residual Activity (%)

- compound: "CCOc1ccc(Cl)cc1-c1cccc(OCC(N)=O)c1"
  measured quantity: "% Residual Activity"
  value measured: 90.14
- compound: "CCCCN(Cc1ccsc1)C(=O)c1ccc(NS(=O)(=O)CC)cc1"
  measured quantity: "% Residual Activity"
  value measured: 94.75
- compound: "Cc1cc(OC(C)(C)C(=O)NCc2n[nH]c(=O)[nH]2)cc(C)c1Cl"
  measured quantity: "% Residual Activity"
  value measured: 90.07
- compound: "CCOc1ccc(Cl)cc1C(C(=O)O)N(C)Cc1cnccn1 (stereo not shown)"
  measured quantity: "% Residual Activity"
  value measured: 100.72
- compound: "CC(C)COc1ccc(C(N)CC(=O)O)cc1 (stereo not shown)"
  measured quantity: "% Residual Activity"
  value measured: 67.96
- compound: "Cc1cccnc1CN(C)C(C(=O)O)c1ccc(-n2cccn2)cc1 (stereo not shown)"
  measured quantity: "% Residual Activity"
  value measured: 89.37
- compound: "NC1(C(=O)O)CCCC1Cc1ccc(Cl)cc1 (stereo not shown)"
  measured quantity: "% Residual Activity"
  value measured: 53.11
- compound: "O=C(O)CNC(=O)c1nc(Cl)c2ccccc2c1O"
  measured quantity: "% Residual Activity"
  value measured: 91.83
- compound: "N[C@@H](Cc1cccc(C(F)(F)F)c1)C(=O)O"
  measured quantity: "% Residual Activity"
  value measured: 15.21
- compound: "O=C(c1ccc2[nH]c(CO)nc2c1)N(Cc1ccco1)Cc1cccs1"
  measured quantity: "% Residual Activity"
  value measured: 93.36

The measurements presented in this section are drawn from paper PMC6337383.
